# System: spontaneously hypertensive rats (SHR)
# PROTOCOL SUMMARY: Diuretic activity in spontaneously hypertensive rats
# Type: in vivo, male spontaneously hypertensive rats (Okamoto strain)
# MEASUREMENT CONTEXT: 100 mg/kg by gavage with 0.9% sodium chloride loading 25 ml/kg; 0-5 hour urine
Sodium (urinary excretion): recorded values

MOLECULE: C=CCOC(=O)N=P(c1ccccc1)(c1ccccc1)c1ccccc1
SYSTEM NAME: spontaneously hypertensive rats (SHR)
Sodium (urinary excretion) / mEQ/5 Hours: 1.17
//
MOLECULE: Cc1ccccc1P(=NC(=O)OC1CCOC1)(c1ccccc1)c1ccccc1 (centres unmarked)
SYSTEM NAME: spontaneously hypertensive rats (SHR)
Sodium (urinary excretion) / mEQ/5 Hours: 2.71
//
MOLECULE: CCOC(=O)N=P(c1ccccc1)(c1ccccc1)c1ccccc1OC
SYSTEM NAME: spontaneously hypertensive rats (SHR)
Sodium (urinary excretion) / mEQ/5 Hours: 1.31
//
MOLECULE: O=C(N=P(c1ccccc1)(c1ccccc1)c1ccccc1)OC(C1CC1)C1CC1
SYSTEM NAME: spontaneously hypertensive rats (SHR)
Sodium (urinary excretion) / mEQ/5 Hours: 1.58
//
MOLECULE: CCOC(=O)N=P(c1ccccc1)(c1ccccc1)c1cccc(C(F)(F)F)c1
SYSTEM NAME: spontaneously hypertensive rats (SHR)
Sodium (urinary excretion) / mEQ/5 Hours: 1.38
//
MOLECULE: CC(=O)CCCOC(=O)N=P(c1ccccc1)(c1ccccc1)c1ccccc1
SYSTEM NAME: spontaneously hypertensive rats (SHR)
Sodium (urinary excretion) / mEQ/5 Hours: 1.16
//
MOLECULE: O=C(N=P(c1ccccc1)(c1ccccc1)c1ccccc1)OCc1cccnc1
SYSTEM NAME: spontaneously hypertensive rats (SHR)
Sodium (urinary excretion) / mEQ/5 Hours: 1.60
//
MOLECULE: CCOC(=O)N=P(c1ccccc1)(c1ccccc1)c1ccccc1F
SYSTEM NAME: spontaneously hypertensive rats (SHR)
Sodium (urinary excretion) / mEQ/5 Hours: 2.01
//
MOLECULE: CCOC(=O)N=P(c1ccccc1)(c1ccccc1C)c1ccccc1C
SYSTEM NAME: spontaneously hypertensive rats (SHR)
Sodium (urinary excretion) / mEQ/5 Hours: 1.46
//
MOLECULE: O=C(N=P(c1ccccc1)(c1ccccc1)c1ccccc1)OCC1CCC1
SYSTEM NAME: spontaneously hypertensive rats (SHR)
Sodium (urinary excretion) / mEQ/5 Hours: 1.47
//
MOLECULE: Cc1ccccc1P(=N)(c1ccccc1)c1ccccc1C
SYSTEM NAME: spontaneously hypertensive rats (SHR)
Sodium (urinary excretion) / mEQ/5 Hours: 1.44

Values compiled from patent US4767749A.
